Catalogue of binders with associated MFI
Target: CD28, full-length, expressed on transfected cells (Homo sapiens (Human)) (UniProt P10747)
Test: flow cytometry, cells expressing target; also: test concentration or dose not given here
Numeric only. Scale: MFI

Please give the measured MFI for this binder: ICOSL ECD-Fc F120S/Y152H/N201S (Fc fusion) DTQEKEVRAMVGSDVELSCACPEGSRFDLNDVYVYWQTSESKTVVTYHIPQNSSLENVDSRYRNRALMSPAGMLRGDFSLRLFNVTPQDEQKFHCLVLSQSLGFQEVLSVEVTLHVAANSSVPVVSAPHSPSQDELTFTCTSINGYPRPNVHWINKTDNSLLDQALQNDTVFLNMRGLYDVVSVLRIARTPSVNIGCCIESVLLQQNLTVGSQTGNDIGERDKITENPVSTGEKNAAT
16

Given the binder ICOSL ECD-Fc N52S/Y146C/Y152C (Fc fusion) DTQEKEVRAMVGSDVELSCACPEGSRFDLNDVYVYWQTSESKTVVTYHIPQSSSLENVDSRYRNRALMSPAGMLRGDFSLRLFNVTPQDEQKFHCLVLSQSLGFQEVLSVEVTLHVAANFSVPVVSAPHSPSQDELTFTCTSINGCPRPNVCWINKTDNSLLDQALQNDTVFLNMRGLYDVVSVLRIARTPSVNIGCCIENVLLQQNLTVGSQTGNDIGERDKITENPVSTGEKNAAT , what is its reported MFI?
39

// query MFI value for entry ICOSL ECD-Fc N52D (Fc fusion) DTQEKEVRAMVGSDVELSCACPEGSRFDLNDVYVYWQTSESKTVVTYHIPQDSSLENVDSRYRNRALMSPAGMLRGDFSLRLFNVTPQDEQKFHCLVLSQSLGFQEVLSVEVTLHVAANFSVPVVSAPHSPSQDELTFTCTSINGYPRPNVYWINKTDNSLLDQALQNDTVFLNMRGLYDVVSVLRIARTPSVNIGCCIENVLLQQNLTVGSQTGNDIGERDKITENPVSTGEKNAAT
130

Can you look up the measured MFI of ICOSL ECD-Fc N52S/D158G (Fc fusion) DTQEKEVRAMVGSDVELSCACPEGSRFDLNDVYVYWQTSESKTVVTYHIPQSSSLENVDSRYRNRALMSPAGMLRGDFSLRLFNVTPQDEQKFHCLVLSQSLGFQEVLSVEVTLHVAANFSVPVVSAPHSPSQDELTFTCTSINGYPRPNVYWINKTGNSLLDQALQNDTVFLNMRGLYDVVSVLRIARTPSVNIGCCIENVLLQQNLTVGSQTGNDIGERDKITENPVSTGEKNAAT for me?
39

Quick check: MFI of ICOSL ECD-Fc N52S/Y152H (Fc fusion) DTQEKEVRAMVGSDVELSCACPEGSRFDLNDVYVYWQTSESKTVVTYHIPQSSSLENVDSRYRNRALMSPAGMLRGDFSLRLFNVTPQDEQKFHCLVLSQSLGFQEVLSVEVTLHVAANFSVPVVSAPHSPSQDELTFTCTSINGYPRPNVHWINKTDNSLLDQALQNDTVFLNMRGLYDVVSVLRIARTPSVNIGCCIENVLLQQNLTVGSQTGNDIGERDKITENPVSTGEKNAAT ?
68

What MFI value was documented for this binder, ICOSL ECD-Fc N52S (Fc fusion) DTQEKEVRAMVGSDVELSCACPEGSRFDLNDVYVYWQTSESKTVVTYHIPQSSSLENVDSRYRNRALMSPAGMLRGDFSLRLFNVTPQDEQKFHCLVLSQSLGFQEVLSVEVTLHVAANFSVPVVSAPHSPSQDELTFTCTSINGYPRPNVYWINKTDNSLLDQALQNDTVFLNMRGLYDVVSVLRIARTPSVNIGCCIENVLLQQNLTVGSQTGNDIGERDKITENPVSTGEKNAAT ?
162
